Target: RORγt (Homo sapiens, UniProt P51449)
Sequence (P51449 1-497 isoform P51449-2): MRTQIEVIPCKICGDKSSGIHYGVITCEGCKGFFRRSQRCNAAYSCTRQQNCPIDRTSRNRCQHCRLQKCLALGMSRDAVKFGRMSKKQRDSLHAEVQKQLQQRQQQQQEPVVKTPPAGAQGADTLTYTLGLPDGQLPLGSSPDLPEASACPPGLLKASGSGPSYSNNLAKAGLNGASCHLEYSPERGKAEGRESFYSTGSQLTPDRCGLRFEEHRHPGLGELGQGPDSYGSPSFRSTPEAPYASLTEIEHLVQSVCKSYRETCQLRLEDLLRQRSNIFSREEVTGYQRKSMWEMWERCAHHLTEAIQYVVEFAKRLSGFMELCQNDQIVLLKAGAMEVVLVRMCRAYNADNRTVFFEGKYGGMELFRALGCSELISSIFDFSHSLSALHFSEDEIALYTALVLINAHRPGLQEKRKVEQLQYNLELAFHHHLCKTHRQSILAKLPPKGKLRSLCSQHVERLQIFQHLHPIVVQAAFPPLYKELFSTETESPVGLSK
Test: Cofactor Recruitment Test (Alpha Screen, biotinylated SRC-1 peptide)
Type: biochemical
Design: histidine tag (implied by the Histidine Detection Kit)
Settings: signal value inhibitory rate at test compound 1 μM
Description: Cofactor recruitment test was performed by Alpha Screen (Histidine Detection Kit, PerkinElmer) method. First, a test compound diluted with an assay buffer (50 mM Tris-HCl (pH 7.5), 50 mM KCl, 1 mM DTT, 0.1% BSA) was added to a 384 well plate by 5 μL each. […] The mixture was stood in a dark place for 1 hr, and the signal value was measured by Envision (PerkinElmer).
Overview of recorded inhibition at 1 µM for various compounds
QUANTITY_MEASURED: inhibition at 1 µM (%)

- CCn1c2ccccc2c2cc(NC(=O)CC(C)CC(=O)Nc3ccc(C#N)nc3)ccc21 (centres unmarked) [Example 49]: 104
- CC(C)Cn1c2c(c3cc(NC(=O)CC(C)CC(=O)Nc4ccc(C#N)cc4)ccc31)CCCC2 (centres unmarked) [Example 20]: 101
- CCn1c2ccccc2c2cc(NC(=O)CC(C)(O)CCOc3ccc(C#N)c(Cl)c3)ccc21 (centres unmarked) [Example 30]: 100
- CCn1c2ccccc2c2cc(NC(=O)CC(C)CC(=O)Nc3ccc(C#N)cn3)ccc21 (centres unmarked) [Example 50]: 103
- CCn1c(C)c(C)c2cc(NC(=O)CC(C)CC(=O)Nc3ccc(C#N)cc3)ccc21 (centres unmarked) [Example 3]: 99.7

* * *

system: Th17 cells; assay: Mouse Th17 Cell Differentiation Test (IL-17A in culture supernatant, ELISA); format: cell-based; settings: Mus musculus, CD4 positive, 96 h, inhibitory rate at 10 μM of test compound; mouse CD4 positive naive T cells, 4 days, IL-17A by ELISA
inhibition at 10 µM values, listed per item
QUANTITY_MEASURED: inhibition at 10 µM (%)

* CCn1c2c(c3cc(NC(=O)CC(C)CC(=O)Nc4ccc(C#N)cc4)ccc31)CCCC2 (centres unmarked) [Example 4] | 97
* CCn1c2ccccc2c2cc(C(=O)NCC(C)CC(=O)Nc3ccc(C#N)c(Cl)c3)ccc21 (centres unmarked) [Example 48] | 96.9
* CCn1c2ccccc2c2cc(NC(=O)CC(C)CC(=O)Nc3ccc(C#N)c(Cl)c3)ccc21 (centres unmarked) [Example 25] | 96.1
* CCn1c2ccccc2c2cc(NC(=O)CC(C)CC(=O)Nc3ccc(C#N)c(C(F)(F)F)c3)ccc21 (centres unmarked) [Example 18] | 95.8
* CCn1c2ccccc2c2cc(NC(=O)CCCC(=O)Nc3ccc(C#N)cc3)ccc21 [Example 16] | 96
